Ref: patent US6906205B2

# System: ANKA strain of P. berghei
# test_protocol: single dose STI in vivo screen in infected mice
# Parameters: species or system Plasmodium berghei
# applied_conditions: single 10 mg/kg sc in 3% ethanol and 7% Tween 80; untreated control 5.6 ± 0.3
result_type: Survival (days) sc
Return type: number; implicit unit days.

As a guide, the following entries are already answered.
N=C(N)N1CCC2(CC1)OOC1(O2)C2CC3CC(C2)CC1C3 (stereo not shown) [OZ191]: 6.0
O=C1c2ccccc2C(=O)N1CC1(c2ccccc2)CCC2(CC1)OOC1(O2)C2CC3CC(C2)CC1C3 (stereo not shown) [OZ97]: 7.0
c1ccc(C[C@H]2CC[C@]3(CC2)OOC2(O3)C3CC4CC(C3)CC2C4)cc1 (stereo partly shown) [OZ156]: 19.7

Consider the additional compound presented here.
Query (compound): c1ccc(CON=C2CCC3(CC2)OOC2(O3)C3CC4CC(C3)CC2C4)cc1 (stereo not shown) [OZ19] ; field requested: Survival (days) sc
13.4

----------
# Tested on: ANKA strain of P. berghei
# test_protocol: single dose STI in vivo screen in infected mice
# Design: species or system Plasmodium berghei
# applied_conditions: single 10 mg/kg sc in 3% ethanol and 7% Tween 80; untreated control 5.6 ± 0.3
Reported Survival (days) sc values for the following compounds.
Express the result in days but write the number alone.

Recorded Survival (days) sc, per entry:
c1ccc2c(c1)-c1ccccc1C21OOC2(O1)C1CC3CC(C1)CC2C3 (stereo not drawn) [OZ94]: 5.3
CON=C1CC2CC3(CC2C1)OOC1(O3)C2CC3CC(C2)CC1C3 (stereo not drawn) [OZ37]: 13

Field: next compound
Survival (days) sc lookup needed for c1ccc(CNC2CCC3(CC2)OOC2(O3)C3CC4CC(C3)CC2C4)cc1 (stereo not drawn) [OZ160] , thanks.
12.0

----------
# Test system: ANKA strain of P. berghei
# test_protocol: single dose STI in vivo screen in infected mice
# Parameters: species or system Plasmodium berghei
# applied_conditions: single 10 mg/kg sc in 3% ethanol and 7% Tween 80; untreated control 5.6 ± 0.3
result_type: Survival (days) sc

// below: answered molecules
O=C1c2ccccc2C(=O)N1[C@H]1CC[C@]2(CC1)OOC1(O2)C2CC3CC(C2)CC1C3 (stereo partly shown): 6.0/6.0/6.0 days
O=S(=O)([O-])OC1CCC2(CC1)OOC1(O2)C2CC3CC(C2)CC1C3.[Na+] (stereo not shown): 5.0/NA/5.0 days
O=C([C@H]1CC[C@]2(CC1)OOC1(O2)C2CC3CC(C2)CC1C3)N1CCN(c2ccccc2)CC1 (stereo partly shown): 7.0 days

Give ANKA strain of P. berghei Survival (days) sc for O=[N+]([O-])c1ccc(C2(c3ccccc3)OOC3(O2)C2CC4CC(C2)CC3C4)cc1 (stereo not shown)
6.0/6.0/6.0 days

----------
# Test system: ANKA strain of P. berghei
# test_protocol: single dose STI in vivo screen in infected mice
# Set-up: species or system Plasmodium berghei
# applied_conditions: single 10 mg/kg sc in 3% ethanol and 7% Tween 80; untreated control 5.6 ± 0.3
result_type: Survival (days) sc
Supply the numeric figure in days, leaving out any unit text.

CC(=O)Nc1ccc(S(=O)(=O)N2CCC3(CC2)OOC2(O3)C3CC4CC(C3)CC2C4)cc1 (stereo not shown): 12.0
Cc1ccc(S(=O)(=O)O)cc1.NC[C@H]1CC[C@]2(CC1)OOC1(O2)C2CC3CC(C2)CC1C3 (stereo partly shown): 11.3
O=C(Nc1ccccc1)N1CCC2(CC1)OOC1(O2)C2CC3CC(C2)CC1C3 (stereo not shown): 19.7
COCC(=O)N[C@H]1CC[C@]2(CC1)OOC1(O2)C2CC3CC(C2)CC1C3 (stereo partly shown): 8.0

Requested read-out: Survival (days) sc. Entry: CN(C)C(=O)N1CCC2(CC1)OOC1(O2)C2CC3CC(C2)CC1C3 (stereo not shown)
7.0

If you can, please state the reported Survival (days) sc value of Clc1ccc2c(NCCNC3CCC4(CC3)OOC3(O4)C4CC5CC(C4)CC3C5)ccnc2c1 (stereo not shown) .
10.7

So what's the measured Survival (days) sc for this one? NCC1(c2ccccc2)CCC2(CC1)OOC1(O2)C2CC3CC(C2)CC1C3 (stereo not shown)
8.7

// query Survival (days) sc value for entry CC(C)(C)OC(=O)N1CCC2(CC1)OOC1(O2)C2CC3CC(C2)CC1C3 (stereo not shown)
9.3

Given the entry CCOC(=O)N1CCC2(CC1)OOC1(O2)C2CC3CC(C2)CC1C3 (stereo not shown) , report its measured Survival (days) sc.
8.9

Fill in the blank: the reported Survival (days) sc of C1C2CC3CC1CC(C2)C31OOC2(CCC3(CC2)OOC2(O3)C3CC4CC(C3)CC2C4)O1 (stereo not shown) is ____.
9.0

----------
# System: ANKA strain of P. berghei
# test_protocol: single dose STI in vivo screen in infected mice
# Set-up: species or system Plasmodium berghei
# applied_conditions: single 10 mg/kg po in 3% ethanol and 7% Tween 80; untreated control 5.6 ± 0.3
Use 7 days as the dividing line for Survival (days) po, with the line itself on the 1 side and lower values as 0.

Solved entries:
OC1(c2ccc(F)cc2)CCC2(CC1)OOC1(O2)C2CC3CC(C2)CC1C3 (stereo not shown) [OZ76]: 0
O=C(O)CC1CCC2(CC1)OOC1(O2)C2CC3CC(C2)CC1C3 (stereo not shown) [OZ78]: 1
C1C2CC3CC1CC(C2)C31OOC2(CCC(NC3CC3)CC2)O1 (stereo not shown) [OZ185]: 1

Is the recorded value of Survival (days) po equal to or greater than 7 days for this compound? CC1(C)COC2(CCC3(CC2)OOC2(O3)C3CCCC2CCC3)OC1 (stereo not shown) [OZ68]
0

Given the entry c1cnn(C[C@H]2CC[C@]3(CC2)OOC2(O3)C3CC4CC(C3)CC2C4)c1 (stereo partly shown) [OZ211] , answer whether its Survival (days) po meets or surpasses 7 days.
1

Kindly determine if Survival (days) po recorded for Cc1ccc(S(=O)(=O)O)cc1.NC[C@H]1CC[C@]2(CC1)OOC1(O2)C2CC3CC(C2)CC1C3 (stereo partly shown) [OZ207] is above or exactly 7 days.
1

Has c1ccc(C2(c3ccccn3)OOC3(O2)C2CC4CC(C2)CC3C4)nc1 (stereo not shown) [OZ81] a recorded Survival (days) po greater than or equal to 7 days?
0

Would you say Cc1ccc(NC(=O)N2CCC3(CC2)OOC2(O3)C3CC4CC(C3)CC2C4)cc1 (stereo not shown) [OZ142] shows Survival (days) po at minimum 7 days?
0

Textbook exercise: given the entry O=C1c2ccccc2C(=O)N1N=C1CCC2(CC1)OOC1(O2)C2CC3CC(C2)CC1C3 (stereo not shown) [OZ38] , state whether its Survival (days) po is greater than or equal to 7 days.
0

----------
Survival (days) sc listing for selected compounds.
# Tested on: ANKA strain of P. berghei
# test_protocol: single dose STI in vivo screen in infected mice
# Design: species or system Plasmodium berghei
# applied_conditions: single 10 mg/kg sc in 3% ethanol and 7% Tween 80; untreated control 5.6 ± 0.3
Return type: number; implicit unit days.

Illustrative cases are given below, each with its answer.
O=C(COc1ccc(Cl)cc1)N1CCC2(CC1)OOC1(O2)C2CC3CC(C2)CC1C3 (centres unmarked): 13
CC(C)N(C(=O)N1CCC2(CC1)OOC1(O2)C2CC3CC(C2)CC1C3)C(C)C (centres unmarked): 20.3
O=[N+]([O-])c1cc(C2(c3ccc(Cl)c([N+](=O)[O-])c3)OOC3(O2)C2CC4CC(C2)CC3C4)ccc1Cl (centres unmarked): 5.3
CC(=O)OC(C)(C)C(=O)N[C@H]1CC[C@]2(CC1)OOC1(O2)C2CC3CC(C2)CC1C3 (some centres unmarked): 7.3

If you can, please state the reported Survival (days) sc value of C1=C(c2ccccc2)CCC2(C1)OOC1(O2)C2CC3CC(C2)CC1C3 (centres unmarked) .
11.0

----------
# Test system: ANKA strain of P. berghei
# test_protocol: single dose STI in vivo screen in infected mice
# Set-up: species or system Plasmodium berghei
# applied_conditions: single 10 mg/kg sc in 3% ethanol and 7% Tween 80; untreated control 5.6 ± 0.3
Survival (days) sc values for the compounds below.
State the answer as a number, implicitly in days.

Examples with answers:
FC(F)(F)c1ccc(C2CCC3(CC2)OOC2(O3)C3CC4CC(C3)CC2C4)cc1 (stereo not drawn): 6.3
O=C1c2ccccc2C(=O)N1N=C1CCC2(CC1)OOC1(O2)C2CC3CC(C2)CC1C3 (stereo not drawn): 25.3
CN1CCN(C(=O)N2CCC3(CC2)OOC2(O3)C3CC4CC(C3)CC2C4)CC1 (stereo not drawn): 8.3
O=C(NO)[C@H]1CC[C@@]2(CC1)OOC1(O2)C2CC3CC(C2)CC1C3 (stereo partly drawn): 7.7
O=C(NC[C@H]1CC[C@]2(CC1)OOC1(O2)C2CC3CC(C2)CC1C3)c1cccc[n+]1[O-] (stereo partly drawn): 11.3

Continue with the compound presented below.
Entry O=C1c2ccccc2C(=O)N1CC[C@H]1CC[C@]2(CC1)OOC1(O2)C2CC3CC(C2)CC1C3 (stereo partly drawn) , system ANKA strain of P. berghei: what Survival (days) sc was measured?
7.0
